The measurements presented in this section are drawn from patent US10047051B2.

Molecular target: CFTR G551D mutant (Homo sapiens, UniProt P13569, G551D)
Sequence (P13569 whole entry G551D): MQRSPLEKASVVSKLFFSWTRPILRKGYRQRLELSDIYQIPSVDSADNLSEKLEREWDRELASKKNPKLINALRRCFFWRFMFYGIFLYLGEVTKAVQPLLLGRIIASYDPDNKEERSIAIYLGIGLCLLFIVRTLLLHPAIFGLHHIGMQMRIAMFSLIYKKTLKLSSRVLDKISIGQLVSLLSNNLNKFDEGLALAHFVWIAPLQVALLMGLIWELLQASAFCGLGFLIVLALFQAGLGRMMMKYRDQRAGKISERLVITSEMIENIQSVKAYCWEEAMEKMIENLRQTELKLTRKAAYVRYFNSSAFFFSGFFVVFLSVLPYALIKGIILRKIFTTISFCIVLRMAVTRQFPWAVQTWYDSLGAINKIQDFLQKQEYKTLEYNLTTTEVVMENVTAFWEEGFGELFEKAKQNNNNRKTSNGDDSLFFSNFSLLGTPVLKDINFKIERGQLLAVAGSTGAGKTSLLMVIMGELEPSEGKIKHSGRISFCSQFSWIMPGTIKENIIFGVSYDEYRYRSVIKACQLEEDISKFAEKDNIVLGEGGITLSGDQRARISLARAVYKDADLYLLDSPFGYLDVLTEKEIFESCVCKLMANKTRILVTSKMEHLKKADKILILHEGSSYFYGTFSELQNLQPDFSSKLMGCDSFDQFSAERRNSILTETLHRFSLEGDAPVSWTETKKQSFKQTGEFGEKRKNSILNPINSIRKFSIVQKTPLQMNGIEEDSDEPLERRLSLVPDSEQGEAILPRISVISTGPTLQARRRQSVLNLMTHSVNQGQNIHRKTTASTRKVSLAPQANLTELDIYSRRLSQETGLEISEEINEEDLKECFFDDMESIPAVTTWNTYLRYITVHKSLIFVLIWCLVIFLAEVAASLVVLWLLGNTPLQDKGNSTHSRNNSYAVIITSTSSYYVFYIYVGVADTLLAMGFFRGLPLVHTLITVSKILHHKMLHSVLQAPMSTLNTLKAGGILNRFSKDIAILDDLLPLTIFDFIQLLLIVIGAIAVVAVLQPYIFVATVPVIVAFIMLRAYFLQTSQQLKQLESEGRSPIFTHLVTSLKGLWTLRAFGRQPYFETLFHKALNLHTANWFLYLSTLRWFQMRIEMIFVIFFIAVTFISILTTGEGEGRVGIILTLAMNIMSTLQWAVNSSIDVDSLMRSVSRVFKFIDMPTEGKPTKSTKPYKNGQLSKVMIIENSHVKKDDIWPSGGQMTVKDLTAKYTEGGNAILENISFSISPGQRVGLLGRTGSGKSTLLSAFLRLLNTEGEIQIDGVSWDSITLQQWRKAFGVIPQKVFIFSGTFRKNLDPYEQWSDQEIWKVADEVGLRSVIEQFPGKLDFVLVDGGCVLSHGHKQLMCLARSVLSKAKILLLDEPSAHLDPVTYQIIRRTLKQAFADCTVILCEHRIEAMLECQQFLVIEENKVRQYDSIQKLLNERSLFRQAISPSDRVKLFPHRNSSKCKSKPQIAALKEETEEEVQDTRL
Test: YFP-halide influx assay for the CFTR-G551D mutation (HEK293 cells)
Conditions: forskolin 10.67 μM
pEC50: −log10 of the molar value.
Lab note: anything with pEC50 at or over 6 counts as fulfilled; the rest go in not fulfilled.

# MOLECULE, TEST_SYSTEM, QUALITATIVE_LABEL
data = [
    ("Nc1cc(S(=O)(=O)N2CCC(F)(F)C2)cnc1C(=O)NCC(O)C(F)(F)F (stereo not shown) [Compound 186]", "CFTR G551D mutant (Homo sapiens, UniProt P13569, G551D)", "not fulfilled"),
    ("COCCN(C)S(=O)(=O)c1cnc(C(=O)NC[C@H](C)O)c(N)c1 [Compound 277]", "CFTR G551D mutant (Homo sapiens, UniProt P13569, G551D)", "not fulfilled"),
    ("C[C@H](O)CNC(=O)c1nc(C2CC2)c(S(=O)(=O)c2ccc(OC(F)(F)F)cc2)cc1N [Compound 290]", "CFTR G551D mutant (Homo sapiens, UniProt P13569, G551D)", "fulfilled"),
    ("CC(C)C1(O)CN(C(=O)c2ncc(S(=O)(=O)c3ccc(C(F)(F)F)cc3F)cc2N)C1 [Compound 162]", "CFTR G551D mutant (Homo sapiens, UniProt P13569, G551D)", "fulfilled"),
    ("CC(C)(C)c1ccc(S(=O)(=O)c2cnc(C(=O)NCC(O)C(F)(F)F)c(N)c2)cc1 (stereo not shown) [Compound 247]", "CFTR G551D mutant (Homo sapiens, UniProt P13569, G551D)", "fulfilled"),
]

Dear colleague, could you confirm whether Nc1cc(S(=O)(=O)c2ccc(OC(F)(F)F)cc2)cnc1C(=O)NCC1CCCOC1 (stereo not shown) [Compound 143] has pEC50 at or above 6?
not fulfilled

Dear colleague, could you confirm whether COCCOc1nc(C(=O)NC[C@H](C)O)c(N)cc1S(=O)(=O)c1ccc(OC(F)(F)F)cc1 [Compound 288] has pEC50 at or above 6?
not fulfilled

---

Reported % Activation values follow for various compounds
Molecular target: CFTR G551D mutant (Homo sapiens, UniProt P13569, G551D)
Construct: expressed in transfected cells; host or cells: HEK293 cells, reverse transfection with plasmids
Assay: YFP-halide influx assay for the CFTR-G551D mutation (HEK293 cells)
Type: cell-based
Details: forskolin 10.67 μM
Give the number; % is assumed, so skip it.

# COMPOUND, UNIT_INFO, % Activation
measured = [
    ("CC[C@@H](CO)NC(=O)c1ncc(S(=O)(=O)c2ccc(OC(F)(F)F)cc2)cc1N [Compound 142]", "%", 44.7),
    ("Nc1cc(S(=O)(=O)c2ccc(OC(F)(F)F)cc2)cnc1C(=O)N1CC(O)(C2CC2)C1 [Compound 86]", "%", 69.3),
    ("Nc1cc(S(=O)(=O)c2ccc(C(F)(F)F)cc2F)cnc1C(=O)NC[C@@H](O)C(F)(F)F [Compound 107]", "%", 81.7),
]

Now take the following compound into account.
Looking for the measured % Activation of CO[C@H]1CCC[C@@H]1NC(=O)c1ncc(S(=O)(=O)c2ccc(C(F)(F)F)cc2)cc1N [Compound 293] , can you help?
40.8

---

Biological target: CFTR G551D mutant (Homo sapiens, UniProt P13569, G551D)
Construct: expressed in transfected cells; host or cells: HEK293 cells, reverse transfection with plasmids
Experiment: YFP-halide influx assay for the CFTR-G551D mutation (HEK293 cells)
Format: cell-based
Details: forskolin 10.67 μM
Reported % Activation values follow for various molecules
Give the number; % is assumed, so skip it.

Worked set:
# MOLECULE, % Activation [%]
measured = [
    ("CC1(C)CN(C(=O)c2ncc(S(=O)(=O)c3ccc(OC(F)(F)F)cc3)cc2N)C1", 84.6),
    ("CC(C)(O)CNC(=O)c1ncc(S(=O)(=O)c2cccc(F)c2)cc1N", 5.0),
    ("Nc1cc(S(=O)(=O)c2ccc(C(F)(F)F)cc2F)cnc1C(=O)N1CC(OC(F)F)C1", 45.8),
    ("C[C@H](O)CNC(=O)c1nc(NC2CC2)c(S(=O)(=O)c2ccc(OC(F)(F)F)cc2)cc1N", 52.5),
    ("CC(CO)CNC(=O)c1ncc(S(=O)(=O)c2ccc(OC(F)(F)F)cc2)cc1N (stereo not drawn)", 52.2),
]

Now take the following molecule into account.
Looking for the measured % Activation of Nc1cc(S(=O)(=O)c2ccc(OC(F)(F)F)cc2)cnc1C(=O)NC[C@@H](O)C(F)(F)F , can you help?
83.7

---

Reported EC50 values follow for various compounds
Molecular target: CFTR ΔF508 mutant (Homo sapiens, UniProt P13569, DEL508-508)
Sequence (P13569 with tags, fused parts or gaps DEL508-508): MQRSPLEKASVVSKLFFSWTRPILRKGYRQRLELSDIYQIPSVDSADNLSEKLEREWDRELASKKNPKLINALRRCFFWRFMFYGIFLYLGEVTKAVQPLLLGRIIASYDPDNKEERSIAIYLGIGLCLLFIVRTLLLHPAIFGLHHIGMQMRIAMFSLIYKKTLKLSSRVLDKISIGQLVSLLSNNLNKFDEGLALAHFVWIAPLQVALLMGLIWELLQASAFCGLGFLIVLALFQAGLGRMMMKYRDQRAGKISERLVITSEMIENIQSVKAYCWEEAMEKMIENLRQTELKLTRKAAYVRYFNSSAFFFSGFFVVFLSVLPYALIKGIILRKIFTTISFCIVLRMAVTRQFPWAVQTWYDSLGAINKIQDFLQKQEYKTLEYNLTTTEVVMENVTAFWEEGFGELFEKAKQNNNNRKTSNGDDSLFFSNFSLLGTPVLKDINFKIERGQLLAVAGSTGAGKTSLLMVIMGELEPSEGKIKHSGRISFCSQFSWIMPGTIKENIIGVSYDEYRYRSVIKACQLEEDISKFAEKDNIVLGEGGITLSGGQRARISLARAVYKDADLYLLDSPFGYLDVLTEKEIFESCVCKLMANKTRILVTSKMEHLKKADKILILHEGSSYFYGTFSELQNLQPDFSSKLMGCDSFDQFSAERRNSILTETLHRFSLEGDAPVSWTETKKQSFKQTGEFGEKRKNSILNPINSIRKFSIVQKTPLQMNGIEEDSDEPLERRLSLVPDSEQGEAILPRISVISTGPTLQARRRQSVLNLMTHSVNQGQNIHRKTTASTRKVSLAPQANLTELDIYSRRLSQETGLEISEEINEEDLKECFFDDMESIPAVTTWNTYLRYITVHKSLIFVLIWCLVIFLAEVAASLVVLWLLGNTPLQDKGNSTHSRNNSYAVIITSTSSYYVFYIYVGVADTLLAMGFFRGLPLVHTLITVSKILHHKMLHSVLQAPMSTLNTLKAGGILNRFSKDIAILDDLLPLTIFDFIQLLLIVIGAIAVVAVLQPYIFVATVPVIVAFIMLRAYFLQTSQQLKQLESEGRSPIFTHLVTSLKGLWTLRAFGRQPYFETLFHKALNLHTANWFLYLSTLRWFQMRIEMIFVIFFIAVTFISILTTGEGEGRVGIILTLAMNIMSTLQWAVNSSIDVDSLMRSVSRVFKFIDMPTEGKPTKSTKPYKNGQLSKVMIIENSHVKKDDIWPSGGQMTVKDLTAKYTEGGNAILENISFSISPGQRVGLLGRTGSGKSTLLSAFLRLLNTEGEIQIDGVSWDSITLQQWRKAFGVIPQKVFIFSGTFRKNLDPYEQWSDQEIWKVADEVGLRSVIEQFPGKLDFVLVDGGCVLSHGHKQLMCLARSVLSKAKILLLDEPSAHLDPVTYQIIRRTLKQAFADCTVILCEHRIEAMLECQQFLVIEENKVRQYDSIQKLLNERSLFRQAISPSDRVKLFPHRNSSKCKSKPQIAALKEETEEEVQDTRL
Assay: YFP-halide influx assay for the CFTR-ΔF508 mutation (CFBE41o- cells)
Details: forskolin 10.67 μM, from (1−F/F0) vs concentration plot
Give the number; nM is assumed, so skip it.

Worked set:
# COMPOUND, TEST_SYSTEM, EC50, nM
records = [
    ("CC(C)(C)C1CCN(S(=O)(=O)c2cnc(C(=O)NCC(O)C(F)(F)F)c(N)c2)CC1 (stereo not shown)", "CFTR ΔF508 mutant (Homo sapiens, UniProt P13569, DEL508-508)", 3.9),
    ("Nc1cc(S(=O)(=O)c2ccc(OC(F)(F)F)cc2F)cnc1C(=O)N1CC(O)(C(F)(F)F)C1", "CFTR ΔF508 mutant (Homo sapiens, UniProt P13569, DEL508-508)", 2.6),
    ("Nc1cc(S(=O)(=O)c2ccc(OC(F)(F)F)cc2)cnc1C(=O)NCC(O)C(F)(F)F (stereo not shown)", "CFTR ΔF508 mutant (Homo sapiens, UniProt P13569, DEL508-508)", 3.4),
    ("COc1nc(C(=O)NC[C@H](C)O)c(N)cc1S(=O)(=O)c1ccc(OC(F)(F)F)cc1", "CFTR ΔF508 mutant (Homo sapiens, UniProt P13569, DEL508-508)", 2.9),
    ("CC(C)NC(=O)CNC(=O)c1ncc(S(=O)(=O)c2ccc(OC(F)(F)F)cc2)cc1N", "CFTR ΔF508 mutant (Homo sapiens, UniProt P13569, DEL508-508)", 7.1),
    ("CC(C)(CCO)CNC(=O)c1ncc(S(=O)(=O)c2ccc(OC(F)(F)F)cc2)cc1N", "CFTR ΔF508 mutant (Homo sapiens, UniProt P13569, DEL508-508)", 91.1),
]

Looking for the measured EC50 of Nc1cc(S(=O)(=O)c2ccc(OC(F)(F)F)cc2)cnc1C(=O)NC1CCOC1 (stereo not shown) , can you help?
82.9

Looking for the measured EC50 of CN(Cc1ccc(F)c(F)c1)S(=O)(=O)c1cnc(C(=O)NCC(O)C(F)(F)F)c(N)c1 (stereo not shown) , can you help?
2.9

Looking for the measured EC50 of COCC(O)CCNC(=O)c1ncc(S(=O)(=O)c2ccc(OC(F)(F)F)cc2)cc1N (stereo not shown) , can you help?
72.9

Looking for the measured EC50 of Nc1cc(S(=O)(=O)c2ccc(OC(F)(F)F)cc2)cnc1C(=O)N1CC(CO)C1 , can you help?
12.5

Looking for the measured EC50 of Nc1cc(S(=O)(=O)c2ccc(OC(F)(F)F)cc2F)cnc1C(=O)NCC(O)COCC1CC1 (stereo not shown) , can you help?
13.8

Looking for the measured EC50 of Nc1cc(S(=O)(=O)c2ccc(OC(F)(F)F)cc2F)cnc1C(=O)NC[C@@H]1CCOC1 , can you help?
27.7

Looking for the measured EC50 of COCCC(C)(O)CNC(=O)c1ncc(S(=O)(=O)c2ccc(C(F)(F)F)cc2F)cc1N (stereo not shown) , can you help?
22.6

---

Reported EC50 values follow for various compounds
Target: CFTR G551D mutant (Homo sapiens, UniProt P13569, G551D)
Assay: YFP-halide influx assay for the CFTR-G551D mutation (HEK293 cells)
Details: forskolin 10.67 μM
Procedure: The YFP halide influx assay measured the functionality of the cystic fibrosis Transmembrane Conductance regulator (CFTR) channels. The assay was used to evaluate the capacity of compounds to increase the channel opening of existing mutant CFTR channels in the membrane. […] The I^−-induced quenching of fluorescence was recorded immediately after injection of I^− for 7 seconds. […]

# COMPOUND, EC50
data = [
    ("C[C@H](O)CNC(=O)c1nc(-c2ccc(F)cc2)c(S(=O)(=O)CCO)cc1N [Compound 262]", "> 1 µM"),
    ("Nc1cc(S(=O)(=O)CC2CCCO2)cnc1C(=O)NCC(O)C(F)(F)F (stereo not shown) [Compound 238]", "> 10 µM"),
    ("CC(C)C(C)NC(=O)c1ncc(S(=O)(=O)c2ccc(C(F)(F)F)cc2)cc1N (stereo not shown) [Compound 188]", "> 10 µM"),
]

Requested read-out EC50, target or system CFTR G551D mutant (Homo sapiens, UniProt P13569, G551D), entry CN1CC[C@@H](NC(=O)c2ncc(S(=O)(=O)c3ccc(OC(F)(F)F)cc3)cc2N)C1 [Compound 208]
> 10 µM
